Sourced from the supplement of paper PMC10567573

test: protein stability index of a GFP-peptide fusion (GPS, HEK-293T) (PSI 1-6); higher = more stable; conditions: treatment: MLN4924 1 uM, 8 h; c terminus: a fixed tail appended;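 note: 24-mer peptide tiles fused after GFP, lentivirally expressed, FACS-sorted into six equal bins by GFP/DsRed ratio, decoded by Illumina sequencing, PSI is the read-weighted mean bin number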
MEASURED ATTRIBUTE: protein stability index
Write the number on its own, no unit after it.

Use these answered entries as a reference point.
INSERT INTO measurements (residues, endpoint_result) VALUES
  ('KPGPITLTVAKCWDPSPRGCFTLP [DVL3]', 2.59),
  ('SIGRRRTELRRSGSSRSPGSKARA [PLEKHN1]', 4.95),
  ('QIITVTVQTGLDQYQQVPVEIVKS [IQUB]', 2.07),
  ('MGTEPAPSAPEALHSLPGVSLSLE [TBX6]', 4.41),
  ('EFKSSFSQSFSLYVKYQVAIHQDP [ATE1]', 2.52);

Ask: // lookup protein stability index for FGIKCAKCQVGFSSSDLVMRARDS [ISL2]
Result: 2.54

Ask: Name the recorded protein stability index for GAIFCPPCYDVRYAPSCAKCKKKI [PDLIM7] .
Result: 3.45

Ask: # lookup: protein stability index of YVKVFEHFLENLDKSRKGELLKKS [PRIM1]
Result: 2.09

Ask: Given the sequence CQVALNFANEEEAKKFRKAVTDLL [WASL] , what is its reported protein stability index?
Result: 2.53

Ask: What protein stability index value was documented for this sequence, TKLSLLAIHGYTVWAHNLIAIARL [FBXO33] ?
Result: 3.22

Ask: Reported protein stability index, sequence FTKNNFFVEKNPTIVNFPITNVDL [USP39] : ____
Result: 2.7

Ask: Data request, read-out protein stability index, for SAILQFPSTLGRCKAFSTCVSHLI [OR10K2]
Result: 2.59

Ask: Name the reported protein stability index value associated with the sequence STVTPVPGQEKGSALEGRADTTTG [EHMT1]
Result: 5.53
